Values were extracted from patent US20240343803A1.

# target_system: T1, full-length human TIGIT on CHO-K1 cells (CHO-K1 human TIGIT) (human, UniProt Q495A1 22-244)
# T1 construct: NCBI XP_024309156.1; entry includes the signal peptide; also called high expression strain 1D2; medium expression strain 2D10
# T1 sequence: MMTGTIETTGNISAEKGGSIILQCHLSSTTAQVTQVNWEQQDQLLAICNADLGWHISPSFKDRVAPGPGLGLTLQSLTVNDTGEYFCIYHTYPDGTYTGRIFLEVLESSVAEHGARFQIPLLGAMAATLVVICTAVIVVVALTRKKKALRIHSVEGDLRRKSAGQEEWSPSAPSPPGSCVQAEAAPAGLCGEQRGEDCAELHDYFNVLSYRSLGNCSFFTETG
# method_description: cell ELISA, low expression strain
readout_type: pEC50
Please note pEC50 is a logarithmic value: minus log10 of concentration in mol/L. Answer with that number alone.

I have this binder here, TIGIT-F2-002 (antibody, V domains shown, mouse hybridoma antibody; variable domains are those printed for the chimeric TIGIT-CHI-002 built from the mouse antibody; tie rests on the number 002 only; also called mouse antibody TIGIT-002) VH: EVQLQESGPGLAKPSQTLSLACSVTGYSITSDSWNWIRKFPGNKLEYMGYISYSGNTYYNPSLKSRISITRDTSKNQFYLQLNSVTTEDTATYYCARLDFSNYGGAVDYWGQGTSVTVSS VL: DIVMTQSHTFMSTSVGDRVSITCKASQNVRTAVAWYQQKPGQSPKLMIYSASYRYTGVPDRFTGSGSGTDFTFTISSVQAEDLAVYYCQQYYTTPWTFGGGAKLEIQ , and I need its recorded pEC50.
9.56

I have this binder here, TIGIT-F2-006 (antibody, V domains shown, mouse hybridoma antibody; variable domains as printed for TIGIT-CHI-006; tie rests on the number 006 only; also called mouse antibody TIGIT-006) VH: EVQLQESGPGLAKPSQTPSLTCSVTGYSMTSDYWNWIRKFPGNKLEYMGYISYSGRTYYNPSLKSRISITRDTSKNQFYLQLNSVTTEDTATYYCARGDYSNYGGAMYDWGQGTSVTVSS VL: DIVMTQSHKFMSTSVGDRVSITCRASQGVSTTIAWYQQKPGQSPKLLIYSASYRYTGVPDRFTGSGSGTDFTFTISGVQAEDLAVYYCQQYYSSPFTFGGGTKLEIK , and I need its recorded pEC50.
9.49

I have this binder here, TIGIT-F2-005 (antibody, V domains shown, mouse hybridoma antibody; variable domains as printed for TIGIT-CHI-005; tie rests on the number 005 only; also called mouse antibody TIGIT-005) VH: QVQLQQSGAELVRPGTSVKVSCKASGYAFTNYLIEWVKQRPGQGLEWIGVINPGSGGTNYKEKFKGKATLTADKSSSTAYMQLSSLTSEDSAVYFCARGEYFFFDYWGQGTTLTVSS VL: DIVMTQSHKFMSTSVGDRVSITCKASQHVSNGVAWYQHKPGQSPKLLIYSASYRYTGVPDRFTGTGSGTDFTFTISSVQAEDLAVYYCQQHYNTPHTFGGGTKLEIK , and I need its recorded pEC50.
9.64

I have this binder here, TIGIT-F5-070 (antibody, V domains shown, mouse hybridoma antibody; variable domains as printed for TIGIT-CHI-070; tie rests on the number 070 only; also called mouse antibody TIGIT-070) VH: QVQLQQPGTELVKPGASVKLSCRASGYTFTNYYMHWVKQRPGRGLEWIGRIDPDSGGSKYNEKFKSKATLTVDKLSSTAYMQLSSLTSEDSAVYYCAREGHYGFYSDYWGQGTTLTVSS VL: DIQMTQSPASLSASVGETVTITCRVSENIYSYLAWYQQKQGKSPQLLVYNAKTLAEGVPSRFSGSGSGTQFSLKINSLQPEDFGNYYCQHHYGNPLTFGAGTKLDLK , and I need its recorded pEC50.
9.43
